Each recorded value in this set is attributed to patent US8404689B2.

Biological target: p38alpha (Homo sapiens)
Construct: GST (N); made in house; host or cells: E. coli (pGEX vector)
Sequence (Q16539 whole entry): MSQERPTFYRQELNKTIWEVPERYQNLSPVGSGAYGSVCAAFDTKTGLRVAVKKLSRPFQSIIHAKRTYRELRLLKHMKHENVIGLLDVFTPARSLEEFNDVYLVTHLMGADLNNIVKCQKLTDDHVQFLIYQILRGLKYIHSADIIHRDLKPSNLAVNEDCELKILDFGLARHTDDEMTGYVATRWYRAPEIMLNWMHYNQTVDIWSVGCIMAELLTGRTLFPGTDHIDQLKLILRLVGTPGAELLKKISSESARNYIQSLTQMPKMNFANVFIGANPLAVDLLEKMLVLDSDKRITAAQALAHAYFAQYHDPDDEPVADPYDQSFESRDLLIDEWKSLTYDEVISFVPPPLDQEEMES
Test: p38α Assay (Caliper LabChip, fluoresceinated peptide)
Assay type: biochemical
Conditions: ratio of p38 beta IC50 to p38 alpha IC50; higher numbers indicate greater alpha selectivity
Would you mind labelling by beta/alpha (alpha selectivity)? At or over 200 is Yes, under is No.

Cc1ccc(C(=O)NC2CC2)cc1NC(=O)c1ccc(-c2cc(F)cc(F)c2)s1 : No

Dear colleague, could you confirm whether "Cc1ccc(C(=O)NC2CC2)cc1NC(=O)c1c[nH]c2ccccc12" has beta/alpha (alpha selectivity) at or above 200?
Yes

Could you please find out whether "Cc1ccc(C(=O)NC2CC2)cc1NC(=O)c1cc(-c2cccnc2)cs1" has beta/alpha (alpha selectivity) that meets 200 or exceeds it?
Yes

API: above_or_equal(metric=beta/alpha (alpha selectivity), cutoff=200) for item "Cc1ccc(C(=O)NC2CC2)cc1NC(=O)c1ccc2c(C#N)cn(C)c2c1"
Yes

Has "CCNC(=O)c1ccc(-c2ccc(C(=O)Nc3cc(C(=O)NC4CC4)ccc3C)s2)cc1" a recorded beta/alpha (alpha selectivity) greater than or equal to 200?
Yes

Hi team, for "COc1ccc(-c2ccc(C(=O)Nc3cc(C(=O)NC4CC4)ccc3C)s2)c(OC)c1" , is the recorded beta/alpha (alpha selectivity) at or above 200?
Yes

Quick check: does "Cc1ccc(C(=O)NC2CC2)cc1NC(=O)c1ccc(-c2ccc[n+]([O-])c2)s1" have beta/alpha (alpha selectivity) greater than or equal to 200?
Yes
